# target_system: human somatostatin receptor subtype SSTR1 (human) (UniProt P30872)
# Sequence (P30872 whole entry): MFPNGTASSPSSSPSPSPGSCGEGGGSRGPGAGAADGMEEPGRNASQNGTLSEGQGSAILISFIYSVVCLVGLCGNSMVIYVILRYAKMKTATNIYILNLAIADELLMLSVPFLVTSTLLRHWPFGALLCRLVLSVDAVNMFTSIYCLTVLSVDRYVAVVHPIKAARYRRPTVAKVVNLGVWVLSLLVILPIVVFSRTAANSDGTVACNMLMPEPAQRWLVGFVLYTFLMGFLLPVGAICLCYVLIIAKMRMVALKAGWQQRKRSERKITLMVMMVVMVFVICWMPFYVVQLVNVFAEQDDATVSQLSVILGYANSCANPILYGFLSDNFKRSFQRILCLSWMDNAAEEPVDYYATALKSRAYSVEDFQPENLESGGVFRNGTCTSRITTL
# test: FACS, transfected HEK-293 cells; normalised to Compound 1
*1 amine or outer side, *2 acyl side, *3 side chain or, on linkers, in order; H or OH if unused. Bridges are numbered along the chain shown (N, C = ends). Primed or numbered codes have the meaning given here. [ ]: non-standard residue; d: D form. N(2-mercaptoethyl)Gly = O=C(CN(CCS[*:3])[*:1])[*:2]; FITC′ = fluorescein isothiocyanate; Orn = NCCC[C@H](N)C(=O)O; Aib = CC(C)(N)C(=O)O; GABA = NCCCC(=O)O
measurement_kind: Binding affinity relative to Compound 1 (% of Compound 1)

Some binders with recorded Binding affinity relative to Compound 1 (% of Compound 1):
| binder | experimental_value |
| --- | --- |
| {FITC′-GABA}-[dF]RCF[dW][Orn]TF[N(2-mercaptoethyl)Gly]-NH2 (disulfide 3-9) [Compound 5] | 0 |
| {FITC′-GABA}-[dF]CFW[dW]RTF[N(2-mercaptoethyl)Gly]-NH2 (disulfide 2-9) [Compound 15] | 133 |

A. {FITC′-GABA}-[dF]CFW[dW][Aib]TF[N(2-mercaptoethyl)Gly]-NH2 (disulfide 2-9) [Compound 13]
B. XCFWXKTFX (FITC-GABA-DPhe-Cys*-Phe-Trp-DTrp-Lys-Thr-Phe-GlyS2*-NH2 (* = S-S bond; GlyS2 = N-thioethyl glycine; FITC-GABA on the N-terminal amine; C-terminal amide)) [Compound 1]
C. {FITC′-GABA}-[dF]CY[dW][Orn]TF[N(2-mercaptoethyl)Gly]-NH2 (disulfide 2-8) [Compound 7]
Input: Hey, quick one: sort these by Binding affinity relative to Compound 1 (% of Compound 1), low to high? Reply: labels, ordered per the request.
Output: C, A, B
(C: 0, A: 33, B: 100)
